tested on: MDA-MB-231 breast; assay: NCI-60 one-dose screen, 48 h (100 = growth as untreated, 0 = no growth, -100 = all killed); details: 10 µM
The panel holds about 83,000 compounds, 20% with a hit somewhere; the sample as a whole holds those more often.
Parameter: growth. Scope: all listed entries.
Form entry: value (%) — number only.

Record CC(=O)c1ccc(NC(=O)NCn2c(=O)[nH]c3ccccc3c2=O)cc1 . Reported growth: 95.1

Record O=C(c1ccc(Cl)cc1)C1[C@H](c2ccccc2Br)[C@@H](c2ccccc2)NC12C(=O)Nc1ccc(Cl)cc12 (some centres not stated) . Reported growth: 5.9

Record CC[C@@]1(O)C(=O)OCc2c1cc1n(c2=O)Cc2c-1nc1cc(F)c(C)c3c1c2[C@@H](N)CC3 . Reported growth: 10.8

Record Cc1cc2nc3c4ccccc4n(CCO)c3nc2cc1C . Reported growth: 18.5

Record COc1ccc(-c2nc(-c3ccccc3)c(-c3ccccc3)n2-c2ccc(S(=O)(=O)Nc3ncccn3)cc2)cc1OC . Reported growth: 62.2

Others:
Record COc1cc(/C=N/NC(=O)c2ccc3nc(-c4ccc(Cl)cc4)[nH]c3c2)cc(OC)c1OC . Reported growth: -74.5

Record CC(=O)Nc1ccc(-n2cnc3cc(-c4ccc(O)cc4)ccc32)cc1C . Reported growth: 49.3

* * *

tested on: MDA-MB-468 breast; test: NCI-60 one-dose screen, 48 h (100 = growth as untreated, 0 = no growth, -100 = all killed); conditions: 10 µM
This is part of a sample that, as a whole, favours compounds with a hit. Of some 83,000 tested, about 20% had one in any assay. Activity calls are given as the source filed them. The calls were made as follows: active = growth percent below 10; inactive = the rest.
Parameter: growth. Scope: all listed entries.

# annotated cases, reported growth shown
Record Cc1nn(-c2ccccc2)c2ncn(CC(=O)N/N=C/c3c[nH]c4ccccc34)c(=O)c12 . Reported growth: 102% (inactive)

Record O=C(Nc1cc(Cl)cc(Cl)c1)Nc1cc(Cl)cc(Cl)c1 . Reported growth: -40.1% (active)

Record Cc1nc(Nc2nc(C)c3ccc(OCCN4CCOCC4)cc3n2)[nH]c(=O)c1C . Reported growth: -72.8% (active)

Record CC(=O)C1=C(C)NC(SCC(=O)Nc2ccc(S(=O)(=O)Nc3cc(C)on3)cc2)=NC1c1ccccc1 (stereo not drawn) . Reported growth: 111% (inactive)

Record CC[C@@]1(O)C(=O)OCc2c1cc1n(c2=O)Cc2c-1nc1cc(F)c(C)c3c1c2[C@@H](N)CC3 . Reported growth: -77.2% (active)

Record O=c1oc2ccc(-c3ccc(F)cc3F)cc2c(=O)n1-c1ccc(F)cc1 . Reported growth: -29.8% (active)

Record CC(=O)Nc1nc(-c2ccc(N3CCN(C)CC3)c(NS(=O)(=O)c3cccc4c(N(C)C)cccc34)c2)cs1 . Reported growth: 58.2% (inactive)

Record CCCCSc1nc(Nc2ccc(/C(C)=N/NC(N)=S)cc2)c(C#N)c(-c2ccc(OC)cc2)n1 . Reported growth: 87.7% (inactive)

Others:
Record CN1C(=O)N(C)C2SC(N/N=C/c3ccc(F)cc3)=NC21 (stereo not drawn) . Reported growth: -12.3% (active)

Record O=S(=O)(Nc1ncccn1)c1ccc(-n2c(-c3ccc(Br)cc3)nc(-c3ccccc3)c2-c2ccccc2)cc1 . Reported growth: 24.3% (inactive)

Record O=C(CNc1nc(-c2ccccc2)cs1)Nc1ccc(Cl)cc1 . Reported growth: -81.2% (active)

Record NS(=O)(=O)c1ccc(N=Nc2c(O)n(CC(=O)Nc3ccccc3Br)c3ccccc23)cc1 . Reported growth: 35.8% (inactive)

Record Cc1ccc2nc(COc3ccc(C(=O)NNC(=S)NC(=O)c4ccccc4)cc3)[nH]c2c1 . Reported growth: 55.6% (inactive)

* * *

test system: SK-MEL-2 melanoma; experiment: NCI-60 one-dose screen, 48 h (100 = growth as untreated, 0 = no growth, -100 = all killed); settings: 10 µM
This is part of a sample that, as a whole, favours compounds with a hit. Of some 83,000 tested, about 20% had one in any assay.
Parameter: growth. Scope: all listed entries.
Form entry: value (%) — number only.

# annotated cases, reported growth shown
Record Cc1ccc(-c2ccc(SCC(=O)Nc3ccc(S(N)(=O)=O)cc3Br)nn2)cc1 . Reported growth: 80.6

Record CC1(C)CC[C@]2(C(=O)O)CC[C@]3(C)C(=CC[C@@H]4[C@@]5(C)C/C(=C/c6ccncc6)[C@H](O)C(C)(C)[C@@H]5CC[C@]43C)[C@@H]2C1 . Reported growth: 55.4

Record CN(C)CCNC(=O)OCCCCOc1cc(O)c2c(=O)cc(-c3ccccc3)oc2c1 . Reported growth: -59.7

Others:
Record O=c1[nH]c2ccccc2cc1CSc1ccc(Nc2nccc(-c3ccc4ccccc4c3)n2)cc1 . Reported growth: 96.5

Record CC1=C2C(=C[C@@](C)(COCOCCCl)[C@@H]2O)C(=O)[C@](C)(O)C12CC2 . Reported growth: -100

Record COc1cc(/C=C/C(=O)c2cc(OC)c(OC)c(OC)c2)ccc1Oc1nc(Nc2ccc(F)cc2)nc(N(C)C)n1 . Reported growth: -49.4

Record Nc1nc(-c2ccccc2)cs1 . Reported growth: 61.6

Record COC[C@@H](CC(C)C)N=C1NC(=O)/C(=C/c2ccc3ncoc3c2)N1 . Reported growth: -75.8

* * *

system: IGROV1 ovarian; test: NCI-60 one-dose screen, 48 h (100 = growth as untreated, 0 = no growth, -100 = all killed); details: 10 µM
This is part of a sample that, as a whole, favours compounds with a hit. Of some 83,000 tested, about 20% had one in any assay.
Parameter: growth. Scope: all listed entries.
Form entry: value (%) — number only.

# annotated cases, reported growth shown
Record C=C1CCC2C3(C)COC(c4cc(F)cc(F)c4)OC3CCC2(C)C1C/C=C1/C(=O)OCC1O (configuration not stated) . Reported growth: -49.8

Record N#Cc1c(NC(=O)c2ccc(C(F)(F)F)cc2C(F)(F)F)sc2c1CCC(=O)C2 . Reported growth: -3.75

Record COc1ccc([C@H]2C(C(=O)c3ccc(Cl)cc3)C3(N[C@@H]2c2ccccc2)C(=O)Nc2ccc(Cl)cc23)cc1 (some centres not stated) . Reported growth: -1.76

Record CCOC(=O)C1=C(N)N(c2ccc(Cl)cc2)C2=C(C(=O)CC(C)(C)C2)C1c1ccc(N2CCOCC2)cc1 (configuration not stated) . Reported growth: 98

Record Cc1noc2c(Cc3ccccc3)nn(CC(=O)N/N=C/c3ccc(F)cc3)c(=O)c12 . Reported growth: 70.4

Others:
Record CCCCCCCCCCCCCCCCCCCC(=O)NCCc1c[nH]c2ccc(O)cc12 . Reported growth: 93.6

Record O=C1Nc2cc(-c3ccc(NC(=O)c4cccs4)cc3)ccc2/C1=C/c1ccc[nH]1 . Reported growth: 97.8

Record COc1ccc(NC(=O)CSc2nnc(-c3ccc4nc(-c5ccc(Cl)cc5)[nH]c4c3)o2)cc1 . Reported growth: 78.4

Record O=C1Nc2cc(Cl)ccc2/C1=C/c1cccc(OCc2ccc(Br)cc2F)c1 . Reported growth: 20.2

Record O=C(CSc1nnc(-c2ccc3nc(-c4ccc(Cl)cc4)[nH]c3c2)o1)Nc1ccc(Br)cc1 . Reported growth: 23.2

Record O=c1[nH]c2ccccc2cc1CSc1ccc(Nc2nccc(-c3ccc(C(F)(F)F)cc3)n2)cc1 . Reported growth: 35.7

Record Cc1ccc(-c2nc3ccc(C(=O)N=Nc4c(O)[nH]c5ccc([N+](=O)[O-])cc45)cc3[nH]2)cc1 . Reported growth: 89.2

Record COc1cc(/C=C/C(=O)c2cc(OC)c(OC)c(OC)c2)ccc1Oc1nc(Nc2ccc(F)cc2)nc(N(C)C)n1 . Reported growth: -64.3

Record N#Cc1ccc(-c2nn(-c3ccc(C(=O)O)cc3)cc2CNc2cc(Cl)cc(C(F)(F)F)c2)cc1 . Reported growth: 34.7

Record O=C(Nc1cccc(C(F)(F)F)c1)c1cncc(C#Cc2cnc3ccc(N4CCOCC4)nn23)c1 . Reported growth: 1.76

* * *

Test system: MDA-MB-231 breast
Test: NCI-60 one-dose screen, 48 h (100 = growth as untreated, 0 = no growth, -100 = all killed)
Conditions: 10 µM
Description: Cells are grown in 96 well plates and exposed to the test compound for 48 hours. Compounds are tested at a single concentration, which is 10^-5 M for most compounds. The reported endpoint is percent growth (GI% or GIPRCNT), where numbers from 0 - 100% represent growth inhibition, and numbers from -100% - 0 represent cell death. For example, a value of 40 represents 60% growth inhibition. A value of 0 means no net growth occurred over the course of the experiment. […]
Compounds without any hit were thinned out: in the full panel of roughly 83,000, 20% have a hit.
Please map values of growth to classes as shown: lowest (below 20%), middle (20% to below 60%), highest (60% or more)

Solved entries (count: 8):
Q. # classify by growth band: O=C(CSc1nnc(-c2ccc3nc(-c4ccccc4)[nH]c3c2)o1)Nc1ccc(Cl)cc1
A. middle

Q. # classify by growth band: CCCCCCCCCCCCCCCCCCCC(=O)NCCc1c[nH]c2ccc(OC(=O)CCCC(=O)OCCOOCCOOCCOOCCOOCCOOCCOOCCOOCCOOCCOOCCOOCCOOCCOC)cc12
A. middle

Q. # classify by growth band: Brc1ccc(/C=N/Nc2ncnc3sc4c(c23)CCN(Cc2ccccc2)C4)cc1
A. middle

Q. # classify by growth band: Cc1ccc(/C=C/C(=O)c2ccc(NC(=O)CSc3nnc(-c4c[nH]c5ccccc45)n3-c3ccccc3)cc2)c(C)c1
A. middle

Q. # classify by growth band: CC(=O)Nc1ccc(-c2cn(-c3cccc(C(=O)Nc4cc(C(F)(F)F)cc(C(F)(F)F)c4)c3)nn2)cn1
A. lowest

Q. # classify by growth band: O=S(=O)(Nc1ncccn1)c1ccc(-n2c(-c3ccccc3)nc(-c3ccccc3)c2-c2ccccc2)cc1
A. highest

Q. # classify by growth band: O=C(Nc1ccc(F)c(Cl)c1)c1cc(-c2ccc(F)cc2F)ccc1O
A. lowest

Q. # classify by growth band: C=C1CCC2C3(C)COC(c4ccccc4F)OC3CCC2(C)C1C/C=C1/C(=O)OCC1O (centres undefined)
A. lowest

Others:
Q. # classify by growth band: CC(=O)c1ccc(Nc2nc(SCCC(C)C)nc(-c3ccc(F)cc3)c2C#N)cc1
A. middle

Q. # classify by growth band: Cc1ccc(NCC(=O)Nn2c(COc3ccccc3)nc3ccccc3c2=O)cc1
A. highest
